# target-under-test: human muscarinic M3 receptor (Homo sapiens)
# Construct: expressed in transfected cells
# Sequence (P20309 whole entry): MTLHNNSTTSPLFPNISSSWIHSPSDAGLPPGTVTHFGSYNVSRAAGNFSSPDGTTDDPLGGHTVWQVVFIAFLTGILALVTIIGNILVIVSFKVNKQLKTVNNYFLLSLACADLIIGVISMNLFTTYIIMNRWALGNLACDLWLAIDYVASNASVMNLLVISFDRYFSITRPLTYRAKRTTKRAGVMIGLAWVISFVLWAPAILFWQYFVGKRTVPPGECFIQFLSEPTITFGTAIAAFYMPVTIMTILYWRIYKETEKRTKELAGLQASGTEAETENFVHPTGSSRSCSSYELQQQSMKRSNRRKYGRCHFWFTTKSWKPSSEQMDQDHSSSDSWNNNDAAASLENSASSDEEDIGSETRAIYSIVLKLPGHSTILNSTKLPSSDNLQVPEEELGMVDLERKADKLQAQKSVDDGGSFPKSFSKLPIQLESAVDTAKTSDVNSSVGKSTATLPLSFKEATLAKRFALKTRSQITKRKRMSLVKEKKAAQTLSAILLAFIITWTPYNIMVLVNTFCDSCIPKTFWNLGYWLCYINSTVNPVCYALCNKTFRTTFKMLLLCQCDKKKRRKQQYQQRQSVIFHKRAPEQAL
# assay-text: Alphascreen Surefire phospho-ERK1/2 functional assay, M3
# Type: cell-based
# measurement-parameters: CHO cells stably expressing human M3; relative to ACh
readout-label: % Emax cf. ACh (M3) (%)

CCOC(=O)N1C2COCC1CC(N1CC3C(C1)C3C(=O)N1CCOCC1)C2 (single isomer, unassigned; isomer 1) [10-13 Isomer 1]
68
CCOC(=O)N1C2CCCC1CC(N1CC3C(C1)C3C(=O)N(C)CC)C2 (single isomer, unassigned; isomer 1) [9-1 Isomer 1]
21

1 = CCOC(=O)N1C2COCC1CC(N1CC3C(C1)C3C(=O)N1CCOCC1)C2 (single isomer, unassigned; isomer 2) [10-13 Isomer 2]
2 = CCOC(=O)N1C2COCC1CC(N1CC3C(C1)C3C(=O)N(CC)CC)C2 (single isomer, unassigned; isomer 2) [10-2 Isomer 2]
input: Of the pair 1 and 2 , name the member with the lesser recorded % Emax cf. ACh (M3). API: response body contains the label of the selected item.
output: 2
(2: 10%, 1: 22%)
